test system: SNB-75; assay: NCI tumour cell line growth inhibition, 48 h
Active and inactive are the calls of the source. Cut-off read from the data, not from the text of the source: active = GI50 up to about 1.1 µM and inactive = higher.
Pick one: 1 = active, 0 = inactive

Can you look up the reported call for `N=C(N)NS(=O)(=O)c1ccc(Nc2c3ccccc3nc3c(C(=O)Nc4ccc(S(N)(=O)=O)cc4)ccc(Cl)c23)cc1` for me? 0

Please do the same for `COc1ccc(-c2cc(=O)c3cc(O)ccc3o2)c(OC)c1OC` as well. 0

# iterate: `Clc1ccc(COc2ccccc2/C=N/c2c(-c3ccco3)nc3ccccn23)c(Cl)c1` 0

Would you mind doing `Cc1oc2nc(N(C)C)n3cnnc3c2c1C` as well? 0

Here is the next compound: `COC1=CC(=O)c2c(O)c3c(c(O)c2C1=O)C[C@](C)(O)C[C@@H]3O` 0

Okay, and C=C1C(=O)OC2C1CC[C@H](C)C13OC(=O)CC1[C@@]23C (stereo partly specified) ? 0

Repeat for the following compound: Nc1ncnc2c1ncn2C1OC(CO)C(O)C(O)C1O (stereo unspecified) 0

Request: `CCCCc1ccc(-n2sc3ncccc3c2=O)cc1` 0

O=S(=O)(CC1=NC2C=CC=CC2N=C1)NCc1ccccc1 (stereo unspecified) ? 0

Try this compound too: COC(=O)C1C(O)CC(c2ccccn2)N(Cc2ccccc2)C1c1ccccn1 (stereo unspecified) 0

Next record, please: `CN(C)CCNC(=O)c1cccc2c1Nc1ccccc1S2` 0

Okay, and Nc1nncc2c1ccn2C1OC(CO)C(O)C1O (stereo unspecified) ? 0

Same question, `COc1ccc(-c2csc(Cc3nc4ccccc4c(=O)n3-c3ccc(Cl)cc3)n2)cc1` this time 0

Please do the same for CC1(C)CC2(C)CC1CC2NC(=O)CCN1CCOCC1 (stereo unspecified) as well. 0

// query: `CCCCCCCCCCCCN(O)C(=O)c1ccccc1` 0

Another: `O=C(CNc1ccccc1[N+](=O)[O-])Nn1cnc2ccc(S(=O)(=O)Nc3ccccc3[N+](=O)[O-])cc2c1=O` 0

Further, for `CCN1C(=O)C(=C/C=C/C=C2/N(C)c3ccccc3C2(C)C)C(=O)N(CC)C1=S` ? 0

Request: `O=C1Nc2ccccc2/C1=C1\C(=O)Nc2ccccc21` 0

Now the compound CC1=NNC(=O)C1C1CC(c2c[nH]c3ccccc23)=NN(c2ccccc2)C1=O (stereo unspecified) 0

O=C(Nc1ccc(Cl)cc1Cl)C(=O)C(C(=O)c1ccncc1)C1OC(=O)c2ccccc21 (stereo unspecified) , same question. 0

Item: Nc1ccc(C(=O)NN2C(=O)C(Cl)C2c2cccc([N+](=O)[O-])c2)cc1 (stereo unspecified) 0

What about this compound? `CC(C)OP(=O)(OC(C)C)/C(=N/Nc1ccc([N+](=O)[O-])cc1)Nc1ccccc1` 0

// repeat for `c1ccc(-c2[nH]c(-c3ccccc3)c(-c3cnccn3)c2-c2cnccn2)cc1` and report 0

CC(C)OP(=O)(OC(C)C)C(C(C)C)N(C)/C(N)=N\C1=NC(C(F)(F)F)(C(F)(F)F)N=C(C(C(F)(F)F)C(F)(F)F)O1 (stereo unspecified) ? 0

Now the compound `O=C(COc1ccc(OCC(=O)N2C(=O)CC/C2=N\c2ccc(Cl)cc2)cc1)N1C(=O)CS/C1=N\c1ccc(Cl)cc1` 0

What about this compound? `COC[C@@H](/N=C/c1ccc(OC)cc1)C(C)C` 0

Moving on to the next compound: O=C(CC(=O)N1N=C(n2ccc3ccccc32)CC1c1ccccc1)Nc1ccccc1Cl (stereo unspecified) 0

Lookup `COc1ccc(-c2c(-c3ccc(OC)cc3)n3c(=O)n(C)c(=O)n23)cc1` 0

Lookup CC(C)C1CC[C@@H](C)C[C@@]1(O)CC(N)=O (stereo partly specified) 0

What about `COc1cccc2c(=O)oc(-c3ccccc3C)nc12` ? 0

Can you check `CC(=O)/C(=C/N1C(=O)CC(=O)NC1=S)C(=O)Nc1ccccc1C` next? 0

Param item: `Cc1c([N+](=O)[O-])oc2ccc3ccccc3c12` 0

What do you have for COC(=O)C(C(=O)C(=O)Nc1cccc(OC)c1)c1cnc2ccccc2n1 (stereo unspecified) ? 0

Then this compound: `Nc1ccccc1/N=N/c1c(S(=O)(=O)O)cc2cc(S(=O)(=O)O)cc(O)c2c1O` 0

Proceed to `O=C(Nc1ccc(C(F)(F)F)cc1)NC(F)(F)F` 0

Same question, CC1C2C=C(O)C(=O)C(C2=O)C1c1ccccc1 (stereo unspecified) this time 0

What about this compound? `CCOC(=O)c1ccc(/N=c2\oc3ccc(OC)cc3cc2-c2nc3ccccc3[nH]2)cc1` 0

What about this compound? COc1cccc2c1C(=O)c1c(O)c3c(c(O)c1C2=O)C[C@@](O)(C(=O)CO)C[C@@H]3OC1CC(N2CCOCC2C#N)C(O)C(C)O1 (stereo partly specified) 1

Next record, please: `C/C(=N\NC(=O)c1ccncc1)c1cccc(C(F)(F)F)c1` 0

Another compound to check: `CCCCCCCCCCCCCCCCOP(=O)([O-])OCC[N+](C)(C)C1CC(C)(C)N(O)C(C)(C)C1` 0

// same read-out, input: O=[N+]([O-])c1ccc(C2=NOC(c3ccccc3)N2C23CC4CC(CC(C4)C2)C3)cc1 (stereo unspecified) 0

----------
test system: EKVX; test: NCI tumour cell line growth inhibition, 48 h
Activity calls are given as the source filed them. Rule as the data show it: active = GI50 up to about 1.1 µM and inactive = higher.
parameter: GI50

Consider the compound `NC(=O)NC1C(c2ccccc2)=C1c1ccccc1` and give its measured GI50. 26.8 µM (inactive)

Then `CCN1C(=O)C(=C/C=C/C=C2/N(C)c3ccccc3C2(C)C)C(=O)N(CC)C1=S` ? > 100 µM (inactive)

Cool, now `Cc1ncc2c(=O)c3c(oc2n1)c1ccccc1n3Cc1ccccc1` > 100 µM (inactive)

Now give it for C#CC(O)/C=C/C(O)CCCC(O)CC#CC(O)C#CCCCCC(O)/C=C/CCCC(O)/C=C/CCCCCCCCCCCCCC(O)C(O)C#CC(=O)O (stereo unspecified) too. > 25 µM (inactive)

// same read-out, input: `CC(C)(C)N1C=[N+](C(C)(C)C)CC1` > 100 µM (inactive)

Follow-up item: `CC(C)c1cc(C(C)C)c(B(c2ccccc2)c2ccccc2)c(C(C)C)c1Br` > 100 µM (inactive)

Then what about the compound `Clc1ccc(CN2COc3c(cc(Cl)c4cccnc34)C2)cc1` ? 4.7 µM (inactive)

One more compound: COC1(O)C(=O)c2ccccc2OC1(OC)c1ccccc1 (stereo unspecified) > 100 µM (inactive)

Now try `COc1ccc(Nc2nc3ccc(C(F)(F)F)cc3nc2C(=O)O)cc1` . 31.5 µM (inactive)

What about `Cc1ccc(S(=O)(=O)NNC(=O)c2cc(C)ccc2NC(=O)C23CC4CC(CC(C4)C2)C3)cc1` ? 60 µM (inactive)

Can you check `N#Cc1c(N2CCCC2)nsc1NCc1ccccc1` next? > 100 µM (inactive)

Same lookup for `CN(C)c1ccc(/C=c2/c3ccccc3n3c2cc(C24CC5CC(CC(C5)C2)C4)[n+]3C)cc1` , please. 0.344 µM (active)

Next record, please: N#CC12C(=O)N3C(=NC(c4ccccc4)NC3c3ccccc3)C1(C#N)C(c1ccccc1)NC1=C2CCCC1 (stereo unspecified) > 100 µM (inactive)

Record: `N#C/C(=C/NC(=S)c1ccncc1)C(N)=O` > 100 µM (inactive)

For `COc1cc2c3c(c1)CCCN3CCC2` then? > 10 µM (inactive)

Likewise for `Cc1ccc(-c2cc(N)n(-c3nc4c([nH]3)c(=O)n(C)c(=O)n4C)n2)cc1` ? 3.09 µM (inactive)

Thanks! And `O=C(/C=C/c1ccsc1)c1ccco1` ? 16.4 µM (inactive)

Next record, please: `Cc1cccc(-c2cc(O)c3c(C)ccnc3n2)c1` 0.935 µM (active)

Further, for `C=C[C@H]1CN2CCc3c([nH]c4cc(O)ccc34)[C@@H]2C[C@@H]1C[C@H]1c2[nH]c3ccccc3c2CCN1C` ? 7.62 µM (inactive)

Next compound up: `O=C(/C=C/c1cc(O)c(O)cc1O)OCCc1ccccc1` 41.4 µM (inactive)

Input `COc1ccc(OC)c(NC(=O)c2c(Cl)c(Cl)c(Cl)c(Cl)c2-c2nc3ccccc3[nH]2)c1` > 100 µM (inactive)

----------
system: MDA-N; test: NCI tumour cell line growth inhibition, 48 h
Active and inactive are the calls of the source. Rule as the data show it: active = GI50 up to about 1.1 µM and inactive = higher.
API: response.call in t = active, f = inactive

// return assay outcome for COc1cccc2c1C(=O)c1c(O)c3c(c(O)c1C2=O)C[C@@](O)(C(=O)CO)C[C@@H]3OC1CC(N2CCOCC2C#N)C(O)C(C)O1 (some centres undefined) t

Now the compound COc1ccc2nc3n(c2c1)C(c1c(F)cccc1Cl)SC3 (centres undefined) f

Here is the next compound: `CCOC(=O)NN(C(=O)OCC)C(=C(c1ccccc1)N1CCOCC1)N(NC(=O)OCC)C(=O)OCC` f

Please give the result for `CC(=O)O[C@H]1CC[C@@]2(C)C(=CC[C@H]3[C@@H]4CC[C@H](c5cc(C(F)(F)F)n(C(C)=O)n5)[C@@]4(C)CC[C@@H]32)C1` too. f

Likewise for CC1(C)CC2(C)CC1CC2NC(=O)CCN1CCOCC1 (centres undefined) ? f

What would you report for CN(C)c1cc[n+](-c2nc([N-]C(=O)C(F)(F)F)nc3c2ncn3C2CC(O)C(CO)O2)cc1 (centres undefined) ? f

Also need `CCc1cc2c(oc3cc4ccccc4cc32)c(=O)[nH]1` , thanks. f

Another compound to look at: `CCN(CC)CCN(/C(=N/c1ccccc1)N1CCCCC1)c1ccccc1` f

Queued: `COc1ccc2c(C)cc(N/N=C/c3ccc(C)s3)nc2c1` f
